# STUDY TARGET: human TfR1 (Homo sapiens, UniProt P02786)
# Sequence (P02786 89-760): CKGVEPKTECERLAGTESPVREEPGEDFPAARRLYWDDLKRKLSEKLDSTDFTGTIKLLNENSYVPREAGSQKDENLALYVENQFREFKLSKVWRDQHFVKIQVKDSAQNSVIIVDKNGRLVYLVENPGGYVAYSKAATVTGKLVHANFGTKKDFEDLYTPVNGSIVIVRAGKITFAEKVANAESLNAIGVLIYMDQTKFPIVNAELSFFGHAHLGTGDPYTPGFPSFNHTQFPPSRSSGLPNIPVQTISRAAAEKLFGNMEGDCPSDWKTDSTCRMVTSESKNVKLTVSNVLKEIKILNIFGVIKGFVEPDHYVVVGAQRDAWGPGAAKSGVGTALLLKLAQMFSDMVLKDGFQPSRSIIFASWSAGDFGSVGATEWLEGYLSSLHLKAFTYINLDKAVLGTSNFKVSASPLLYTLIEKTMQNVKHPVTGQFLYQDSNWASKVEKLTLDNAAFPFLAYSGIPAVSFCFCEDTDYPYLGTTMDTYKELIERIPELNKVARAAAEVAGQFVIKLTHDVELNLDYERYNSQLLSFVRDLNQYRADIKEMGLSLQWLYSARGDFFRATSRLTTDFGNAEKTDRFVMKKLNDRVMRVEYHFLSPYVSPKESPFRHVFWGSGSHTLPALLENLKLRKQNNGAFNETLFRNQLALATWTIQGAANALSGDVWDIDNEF
# PROTOCOL DESCRIPTION: biochemical
# Type: binding
# Design: His6-tagged TfR1 (a.a. 89-760) (ACRO Biosystems, CD1-H5243 and TFR-C524a); His6; purchased R&D Systems or Acro Biosystems 2474-TR or CD1-H5243
# MEASUREMENT PARAMETERS: Human TfR1 Kd (nM)
Let's look at some molecules and their measured Kd.

MOLECULE	Kd, nM
CC[C@H](C)[C@@H]1NC(=O)[C@@H]2CSCC(=O)N3CN(CN(C3)C(=O)CSC[C@@H](C(=O)N[C@@H](CCC(=O)O)C(=O)N3CCCC[C@H]3C(=O)N[C@@H](Cc3c[nH]c4ccccc34)C(N)=O)NC(=O)[C@H](Cc3ccc(O)cc3)NC(=O)[C@H](CO)NC1=O)C(=O)CSC[C@H](NC(C)=O)C(=O)N[C@@H](CO)C(=O)N1CCC[C@H]1C(=O)N[C@@H](CC(=O)O)C(=O)N[C@@H](C)C(=O)N[C@@H](Cc1c[nH]cn1)C(=O)N[C@@H](CC(C)C)C(=O)NCC(=O)N2 [BCY18039, Ac-(SEQ ID NO: 9)-E[Pip]W]	8.6
CC[C@H](C)[C@@H]1NC(=O)[C@@H]2CSCC(=O)N3CN(CN(C3)C(=O)CSC[C@H](NC(C)=O)C(=O)N[C@@H](CO)C(=O)N3CC[C@H]3C(=O)N[C@@H](CC(=O)O)C(=O)N[C@@H](C)C(=O)N[C@@H](Cc3c[nH]cn3)C(=O)N[C@@H](CC(C)C)C(=O)NCC(=O)N2)C(=O)CSC[C@@H](C(N)=O)NC(=O)[C@H](Cc2ccc(O)cc2)NC(=O)[C@H](CO)NC1=O [BCY17988, Ac-(SEQ ID NO: 44)]	649

----------
# STUDY TARGET: cynomolgus TfR1
Starred links: 1 amine or outer side, 2 acyl side, 3 side chain; linkers in the order of their positions; H or OH if unused. Positions of bridges follow the written chain, without caps; N, C: chain ends. Residues, ends and D or L forms follow the SMILES beside them. TATB = O=C(C[*:1])N1CN(C(=O)C[*:2])CN(C(=O)C[*:3])C1
QUANTITY KIND: Kd (nM)

COMPOUND	ASSAY VALUE
CC(C)C[C@@H]1NC(=O)[C@H](Cc2ccc(O)cc2)NC(=O)[C@H](C)NC(=O)[C@H](CC(=O)O)NC(=O)[C@@H]2CCCN2C(=O)[C@@H]2CCCN2C(=O)[C@@H](NC(=O)[C@H](C)N)CSCC(=O)N2CN3CN(C2)C(=O)CSC[C@@H](C(=O)N[C@@H](C)C(N)=O)NC(=O)[C@H](Cc2ccc(O)cc2)NC(=O)[C@H](CO)NC(=O)[C@H](C(C)(C)C)NC(=O)[C@H](CSCC3=O)NC(=O)CNC1=O [BCY16964, A-(SEQ ID NO: 22)-A]	514
CC[C@H](C)[C@@H]1NC(=O)[C@@H]2CSCC(=O)N3CN(CN(C3)C(=O)CSC[C@@H](C(=O)N[C@@H](CCC(=O)O)C(=O)N3CCCC[C@H]3C(=O)N[C@@H](Cc3c[nH]c4ccccc34)C(N)=O)NC(=O)[C@H](Cc3ccc(O)cc3)NC(=O)[C@H](CO)NC1=O)C(=O)CSC[C@H](NC(C)=O)C(=O)N[C@@H](CO)C(=O)N1CCC[C@H]1C(=O)N[C@@H](CC(=O)O)C(=O)N[C@@H](C)C(=O)N[C@@H](Cc1c[nH]cn1)C(=O)N[C@@H](CC(C)C)C(=O)NCC(=O)N2 [BCY18039, Ac-(SEQ ID NO: 9)-E[Pip]W]	819
CC[C@H](C)[C@@H]1NC(=O)[C@@H]2CSCC(=O)N3CN(CN(C3)C(=O)CSC[C@@H](C(=O)N3CCC[C@H]3C(=O)N[C@H](C(=O)N[C@H](C(=O)N[C@@H](Cc3c[nH]cn3)C(N)=O)C(C)C)[C@@H](C)CC)NC(=O)[C@H](Cc3ccc(O)cc3)NC(=O)[C@H](CO)NC1=O)C(=O)CSC[C@H](NC(=O)[C@H](C)N)C(=O)N[C@@H](CO)C(=O)N1CCC[C@H]1C(=O)N[C@@H](CC(=O)O)C(=O)N[C@@H](C)C(=O)N[C@@H](Cc1c[nH]cn1)C(=O)N[C@@H](CC(C)C)C(=O)NCC(=O)N2 [BCY17120, A-(SEQ ID NO: 9)-PIVH]	1260
CC[C@H](C)[C@@H]1NC(=O)[C@@H]2CSCC(=O)N3CN(CN(C3)C(=O)CSC[C@H](NC(=O)[C@H](CC(N)=O)NC(=O)[C@H](Cc3cccc4ccccc34)NC(=O)[C@H](CC(N)=O)NC(C)=O)C(=O)N[C@@H](CO)C(=O)N3CCC[C@H]3C(=O)N[C@@H](CC(=O)O)C(=O)N[C@@H](C)C(=O)N[C@@H](Cc3c[nH]cn3)C(=O)N[C@@H](CC(C)C)C(=O)NCC(=O)N2)C(=O)CSC[C@@H](C(N)=O)NC(=O)[C@H](Cc2ccc(O)cc2)NC(=O)[C@H](CO)NC1=O [BCY18034, Ac-N[1Nal]N-(SEQ ID NO: 9)]	2080
CC[C@H](C)[C@@H]1NC(=O)[C@@H]2CSCC(=O)N3CN(CN(C3)C(=O)CSC[C@@H](C(=O)N[C@@H](CCC(=O)O)C(=O)N3CCC[C@H]3C(=O)N[C@@H](Cc3c[nH]c4ccccc34)C(N)=O)NC(=O)[C@H](Cc3ccc(O)cc3)NC(=O)[C@H](CO)NC1=O)C(=O)CSC[C@H](NC(C)=O)C(=O)N[C@@H](CO)C(=O)N1CCC[C@H]1C(=O)N[C@@H](CC(=O)O)C(=O)N[C@@H](C)C(=O)N[C@@H](Cc1c[nH]cn1)C(=O)N[C@@H](CC(C)C)C(=O)NCC(=O)N2 [BCY17994, Ac-(SEQ ID NO: 9)-EPW]	688
CC[C@H](C)[C@@H]1NC(=O)[C@@H]2CSCC(=O)N3CN(CN(C3)C(=O)CSC[C@@H](C(=O)N[C@@H](C)C(N)=O)NC(=O)[C@H](Cc3ccc(O)cc3)NC(=O)[C@H](CO)NC1=O)C(=O)CSC[C@H](NC(=O)[C@H](C)N)C(=O)N[C@@H](CO)C(=O)N1C[C@H](O)C[C@H]1C(=O)N[C@@H](CC(=O)O)C(=O)N[C@@H](C)C(=O)N[C@@H](Cc1c[nH]cn1)C(=O)N[C@@H](CC(C)C)C(=O)NCC(=O)N2 [BCY16047, A-(SEQ ID NO: 15)-A]	4830
CC[C@H](C)[C@@H]1NC(=O)[C@@H]2CSCC(=O)N3CN(CN(C3)C(=O)CSC[C@H](NC(C)=O)C(=O)N[C@@H](CO)C(=O)N3CCC[C@H]3C(=O)N[C@@H](CC(=O)O)C(=O)N[C@@H](C)C(=O)N[C@@H](Cc3c[nH]cn3)C(=O)N[C@@H](CC(C)C)C(=O)NCC(=O)N2)C(=O)CSC[C@@H](C(N)=O)NC(=O)[C@H](Cc2ccc(O)cc2)NC(=O)[C@H](CO)NC1=O [BCY15891, Ac-(SEQ ID NO: 9)] (Ac-CSPDAHLGCISYC-NH2; linker 1-9-13 via TATB)	3990
CC[C@H](C)[C@@H]1NC(=O)[C@@H]2CSCC(=O)N3CN(CN(C3)C(=O)CSC[C@@H](C(=O)N[C@@H](C)C(N)=O)NC(=O)[C@H](Cc3ccc4ccccc4c3)NC(=O)[C@H](CO)NC1=O)C(=O)CSC[C@H](NC(=O)[C@H](C)N)C(=O)N[C@@H](CO)C(=O)N1CCC[C@H]1C(=O)N[C@@H](CC(=O)O)C(=O)N[C@@H](C)C(=O)N[C@@H](Cc1c[nH]cn1)C(=O)N[C@@H](CC(C)C)C(=O)NCC(=O)N2 [BCY16031, A-(SEQ ID NO: 36)-A]	6480
CC[C@H](C)[C@@H]1NC(=O)[C@@H]2CSCC(=O)N3CN(CN(C3)C(=O)CSC[C@H](NC(=O)[C@H](CC(N)=O)NC(=O)[C@@H](Cc3c[nH]c4ccccc34)NC(=O)[C@H](CC(N)=O)NC(C)=O)C(=O)N[C@@H](CO)C(=O)N3CCC[C@H]3C(=O)N[C@@H](CC(=O)O)C(=O)N[C@@H](C)C(=O)N[C@@H](Cc3c[nH]cn3)C(=O)N[C@@H](CC(C)C)C(=O)NCC(=O)N2)C(=O)CSC[C@@H](C(N)=O)NC(=O)[C@H](Cc2ccc(O)cc2)NC(=O)[C@H](CO)NC1=O [BCY18035, Ac-N[dW]N-(SEQ ID NO: 9)]	10300
